The origin of these recorded values is ChEMBL document CHEMBL4219129.

Consider the following molecules; for each one, report its MIC.
test system: Staphylococcus aureus; assay: Antibacterial activity against linezolid-resistant Staphylococcus aureus O-128; type: functional

Sample answers from the record:
O=C1NC(=O)C2(Cc3cc(-c4ccc(N5C[C@H](CO)OC5=O)cc4F)ccc3N3CCOCC32)C(=O)N1 (some centres not stated); 32 µg/mL
CC(=O)NC[C@H]1CN(c2ccc(-c3ccc4c(c3)CC3(C(=O)NC(=O)NC3=O)C3CCCN43)c(F)c2)C(=O)O1 (some centres not stated); 16 µg/mL

Could you tell me MIC for each of these molecules? They are listed below.
1. CCC(=O)NC[C@H]1CN(c2ccc(-c3ccc4c(c3)CC3(C(=O)NC(=O)NC3=O)C3CCCN43)c(F)c2)C(=O)O1 (some centres not stated)
2. COC(=O)NC[C@H]1CN(c2ccc(-c3ccc4c(c3)CC3(C(=O)NC(=O)NC3=O)C3COCCN43)c(F)c2)C(=O)O1 (some centres not stated)
3. CC(=O)NC[C@H]1CN(c2ccc(-c3ccc4c(c3)CC3(C(=O)NNC3=O)C3CCCN43)c(F)c2)C(=O)O1 (some centres not stated)
4. CC(=O)NC[C@H]1CN(c2ccc3c(c2)CC2(C(=O)NNC2=O)C2COCCN32)C(=O)O1 (some centres not stated)
5. COC(=O)C1(C(=O)OC)Cc2cc(-c3ccc(N4C[C@H](CO)OC4=O)cc3F)ccc2N2CCOCC21 (some centres not stated)

Response given:
["32 µg/mL", "32 µg/mL", "32 µg/mL", "> 32 µg/mL", "> 32 µg/mL"]

Hi! Can you tell me MIC for each of these molecules?
1. O=C1O[C@@H](CO)CN1c1ccc(-c2ccc3c(c2)CC2(C(=O)NNC2=O)C2CCCN32)c(F)c1 (some centres not stated)
2. CCC(=O)NC[C@H]1CN(c2ccc(-c3ccc4c(c3)CC3(C(=O)NC(=O)NC3=O)C3COCCN43)c(F)c2)C(=O)O1 (some centres not stated)

Response given:
> 32 µg/mL
32 µg/mL

# batch: return MIC for each of the 7 molecules below
1. CC(=O)NC[C@H]1CN(c2ccc(-c3ccc4c(c3)CC3(C(=O)NC(=O)NC3=O)C3CCCCN43)c(F)c2)C(=O)O1 (some centres not stated)
2. O=C1O[C@@H](CO)CN1c1ccc2c(c1)CC1(C(=O)NNC1=O)C1COCCN21 (some centres not stated)
3. O=C1NC(=O)C2(Cc3cc(-c4ccc(N5C[C@H](CO)OC5=O)cc4F)ccc3N3CCCC32)C(=O)N1 (some centres not stated)
4. COC(=O)C1(C(=O)OC)Cc2cc(-c3ccc(N4C[C@H](CNC(C)=O)OC4=O)cc3F)ccc2N2CCOCC21 (some centres not stated)
5. CC(=O)NC[C@H]1CN(c2ccc(-c3ccc4c(c3)CC3(C(=O)NC(=O)NC3=O)C3COCCN43)c(F)c2)C(=O)O1 (some centres not stated)
6. O=C1NC(=O)C2(Cc3cc(N4C[C@H](CO)OC4=O)ccc3N3CCOCC32)C(=O)N1 (some centres not stated)
7. CCOC(=O)NC[C@H]1CN(c2ccc(-c3ccc4c(c3)CC3(C(=O)NC(=O)NC3=O)C3COCCN43)c(F)c2)C(=O)O1 (some centres not stated)

Response given:
["8 µg/mL", "> 32 µg/mL", "32 µg/mL", "32 µg/mL", "32 µg/mL", "> 32 µg/mL", "> 32 µg/mL"]

get_value(item= CC(=O)NC[C@H]1CN(c2ccc3c(c2)CC2(C(=O)NC(=O)NC2=O)C2COCCN32)C(=O)O1 (some centres not stated) , readout=MIC) returns > 32 µg/mL

----------
tested on: Staphylococcus aureus; test: Antibacterial activity against […] Staphylococcus aureus ATCC 13709 SMITH; type: functional
For each entry below, report its MIC value.

// below: answered compounds
CC(=O)NC[C@H]1CN(c2ccc(N3CCOCC3)c(F)c2)C(=O)O1 [LINEZOLID]; 2 to 32 µg/mL
O=C1NC(=O)C2(Cc3cc(N4C[C@H](CO)OC4=O)ccc3N3CCOCC32)C(=O)N1 (stereo partly specified); > 32 µg/mL
O=C1NC(=O)C2(Cc3cc(-c4ccc(N5C[C@H](CO)OC5=O)cc4F)ccc3N3CCCCC32)C(=O)N1 (stereo partly specified); 16 µg/mL

Report MIC for every entry below.
1. COC(=O)NC[C@H]1CN(c2ccc(-c3ccc4c(c3)CC3(C(=O)NC(=O)NC3=O)C3CCCN43)c(F)c2)C(=O)O1 (stereo partly specified)
2. CCC(=O)NC[C@H]1CN(c2ccc(-c3ccc4c(c3)CC3(C(=O)NC(=O)NC3=O)C3CCCN43)c(F)c2)C(=O)O1 (stereo partly specified)
3. O=C1O[C@@H](CO)CN1c1ccc(-c2ccc3c(c2)CC2(C(=O)NNC2=O)C2CCCN32)c(F)c1 (stereo partly specified)
4. O=C1O[C@@H](CO)CN1c1ccc2c(c1)CC1(C(=O)NNC1=O)C1COCCN21 (stereo partly specified)
5. CCC(=O)NC[C@H]1CN(c2ccc(-c3ccc4c(c3)CC3(C(=O)NC(=O)NC3=O)C3COCCN43)c(F)c2)C(=O)O1 (stereo partly specified)
6. CC(=O)NC[C@H]1CN(c2ccc(-c3ccc4c(c3)CC3(C(=O)NC(=O)NC3=O)C3CCCCN43)c(F)c2)C(=O)O1 (stereo partly specified)
7. COC(=O)C1(C(=O)OC)Cc2cc(-c3ccc(N4C[C@H](CO)OC4=O)cc3F)ccc2N2CCOCC21 (stereo partly specified)

Response given:
1. > 32 µg/mL
2. 32 µg/mL
3. ≥ 32 µg/mL
4. > 32 µg/mL
5. > 32 µg/mL
6. 16 µg/mL
7. > 32 µg/mL

----------
system: Staphylococcus aureus; assay: Antibacterial activity against Staphylococcus aureus ATCC 29213; format: functional
So basically: is MIC under 8 µg/mL? Then label 1. Not under? Then label 0.

Some solved cases for reference:
O=C1NC(=O)C2(Cc3cc(-c4ccc(N5C[C@H](CO)OC5=O)cc4F)ccc3N3CCCCC32)C(=O)N1 (stereo partly specified); label 1
COC(=O)NC[C@H]1CN(c2ccc(-c3ccc4c(c3)CC3(C(=O)NC(=O)NC3=O)C3CCCN43)c(F)c2)C(=O)O1 (stereo partly specified); label 1
CC(=O)NC[C@H]1CN(c2ccc3c(c2)CC2(C(=O)NC(=O)NC2=O)C2COCCN32)C(=O)O1 (stereo partly specified); label 0
COC(=O)C1(C(=O)OC)Cc2cc(-c3ccc(N4C[C@H](CO)OC4=O)cc3F)ccc2N2CCOCC21 (stereo partly specified); label 0
CS(=O)(=O)NC[C@H]1CN(c2ccc(-c3ccc4c(c3)CC3(C(=O)NC(=O)NC3=O)C3CCCN43)c(F)c2)C(=O)O1 (stereo partly specified); label 0

Note: attention shifts to another entry.
Challenge: Consider O=C1NC(=O)C2(Cc3cc(-c4ccc(N5C[C@H](CNC(=O)C(F)(F)F)OC5=O)cc4F)ccc3N3CCCC32)C(=O)N1 (stereo partly specified) . Does its MIC lie strictly below 8 µg/mL?
Response given: label 0

----------
Please provide measured MIC for the entries that follow.
tested on: Staphylococcus aureus; test: Antibacterial activity against methicillin-resistant Staphylococcus aureus 562; format: functional

O=C1NC(=O)C2(Cc3cc(-c4ccc(N5C[C@H](CNC(=O)C(F)(F)F)OC5=O)cc4F)ccc3N3CCCC32)C(=O)N1 (stereo not given in full); 8 µg/mL
CCOC(=O)NC[C@H]1CN(c2ccc(-c3ccc4c(c3)CC3(C(=O)NC(=O)NC3=O)C3CCCN43)c(F)c2)C(=O)O1 (stereo not given in full); 4 µg/mL
CCOC(=O)NC[C@H]1CN(c2ccc(-c3ccc4c(c3)CC3(C(=O)NC(=O)NC3=O)C3COCCN43)c(F)c2)C(=O)O1 (stereo not given in full); 8 µg/mL
CC(=O)NC[C@H]1CN(c2ccc(-c3ccc4c(c3)CC3(C(=O)NC(=O)NC3=O)C3COCCN43)c(F)c2)C(=O)O1 (stereo not given in full); 4 µg/mL
CCC(=O)NC[C@H]1CN(c2ccc(-c3ccc4c(c3)CC3(C(=O)NC(=O)NC3=O)C3COCCN43)c(F)c2)C(=O)O1 (stereo not given in full); 4 µg/mL
CC(=O)NC[C@H]1CN(c2ccc(N3CCOCC3)c(F)c2)C(=O)O1; 2 to 4 µg/mL
COC(=O)NC[C@H]1CN(c2ccc(-c3ccc4c(c3)CC3(C(=O)NC(=O)NC3=O)C3CCCN43)c(F)c2)C(=O)O1 (stereo not given in full); 2 µg/mL
O=C1NC(=O)C2(Cc3cc(-c4ccc(N5C[C@H](CO)OC5=O)cc4F)ccc3N3CCCCC32)C(=O)N1 (stereo not given in full); 2 µg/mL

Give one value of MIC per listed compound.
1. CC(=O)NC[C@H]1CN(c2ccc(-c3ccc4c(c3)CC3(C(=O)NC(=O)NC3=O)C3CCCCN43)c(F)c2)C(=O)O1 (stereo not given in full)
2. CC(=O)NC[C@H]1CN(c2ccc(-c3ccc4c(c3)CC3(C(=O)NC(=O)NC3=O)C3CCCN43)c(F)c2)C(=O)O1 (stereo not given in full)
3. O=C1NC(=O)C2(Cc3cc(N4C[C@H](CO)OC4=O)ccc3N3CCOCC32)C(=O)N1 (stereo not given in full)
4. O=C1NC(=O)C2(Cc3cc(-c4ccc(N5C[C@H](CO)OC5=O)cc4F)ccc3N3CCOCC32)C(=O)N1 (stereo not given in full)
5. O=C1NC(=O)C2(Cc3cc(-c4ccc(N5C[C@H](CO)OC5=O)cc4F)ccc3N3CCCC32)C(=O)N1 (stereo not given in full)

Response given:
1: ≤ 1 µg/mL; 2: 2 µg/mL; 3: > 32 µg/mL; 4: 4 µg/mL; 5: 2 µg/mL

Please supply MIC for each of the following items, keeping them in order.
1. CCC(=O)NC[C@H]1CN(c2ccc(-c3ccc4c(c3)CC3(C(=O)NC(=O)NC3=O)C3CCCN43)c(F)c2)C(=O)O1 (stereo not given in full)
2. CC(=O)NC[C@H]1CN(c2ccc3c(c2)CC2(C(=O)NC(=O)NC2=O)C2COCCN32)C(=O)O1 (stereo not given in full)
3. COC(=O)C1(C(=O)OC)Cc2cc(-c3ccc(N4C[C@H](CO)OC4=O)cc3F)ccc2N2CCOCC21 (stereo not given in full)
4. O=C1O[C@@H](CO)CN1c1ccc(-c2ccc3c(c2)CC2(C(=O)NNC2=O)C2CCCN32)c(F)c1 (stereo not given in full)

Response given:
1. 4 µg/mL
2. > 32 µg/mL
3. 8 µg/mL
4. 2 to 32 µg/mL
